# system under test: ATXN3 (UniProt P54252)
# Sequence (P54252 whole entry, the tested form may be a part): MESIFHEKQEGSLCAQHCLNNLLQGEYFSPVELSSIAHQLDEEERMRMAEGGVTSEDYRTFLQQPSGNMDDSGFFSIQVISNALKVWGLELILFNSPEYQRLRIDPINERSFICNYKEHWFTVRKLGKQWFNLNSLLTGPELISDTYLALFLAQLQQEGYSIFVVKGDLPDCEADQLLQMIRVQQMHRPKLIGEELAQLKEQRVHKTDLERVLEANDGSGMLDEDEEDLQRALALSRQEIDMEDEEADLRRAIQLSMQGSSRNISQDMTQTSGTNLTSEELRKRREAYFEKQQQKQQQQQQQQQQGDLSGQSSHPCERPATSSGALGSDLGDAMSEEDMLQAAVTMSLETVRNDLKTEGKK
# protocol details: log2 ratio of Biotin-Ahx-Ub-VS probe labelling (fragment/DMSO); higher = less target engagement (more negative = stronger competition), active = hit call of the paper (q ≤ 0.05, log2 ratio ≤ -1)
# details: compound concentration: 200 uM; treatment time: 3 h
Choose the fitting class; nothing outside active, inactive is accepted.

Examples with answers:
1. Cc1ccc(C)c(NC(=O)CCl)c1
inactive
2. CC1CN(c2ccc(NC(=O)CCl)cc2)CC(C)O1 (stereo not drawn)
inactive

Consider the record given below.
Request: GET /call?item= O=C(CCl)N1CCN(c2nc3ccccc3o2)CC1 returns the recorded outcome of this test.
Response: active
